molecular target: Human CD16A 158F (human); test: ELISA
Sequence (chain, as listed by the source): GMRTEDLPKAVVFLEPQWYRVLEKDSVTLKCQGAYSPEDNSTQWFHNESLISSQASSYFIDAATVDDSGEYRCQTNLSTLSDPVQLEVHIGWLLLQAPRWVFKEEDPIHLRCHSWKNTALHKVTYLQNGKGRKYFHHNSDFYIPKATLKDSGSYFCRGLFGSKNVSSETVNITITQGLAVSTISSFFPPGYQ
pEC50: −log10 of the molar value.
assayMetric: pEC50

binder	measValue
CD16-VH-RM77 (antibody) EVQLVESGGGLVQPGGSLRLSCAASGFTFSNYGMSWVRQAPGKGLEWIGSIYYNGSTNYNPSLKSLVTISRDNSKNTLYLQMNSLRAEDTATYYCARESIDYWGQGTLVTVSS	8.92
CD16-VH-RM82 (antibody) EVQLVESGGGLVQPGGSLRLSCAASGFTFSNYGMSWVRQAPGKGLEWIGSIYYSVSTNYNPSLKSLVTISRDNSKNTLYLQMNSLRAEDTATYYCARESIDYWGQGTLVTVSS	8.48
CD16-VH-RM76 (antibody) EVQLVESGGGLVQPGGSLRLSCAASGFTFSNYGMSWVRQAPGKGLEWIGSIYYSGETNYNPSLKSLVTISRDNSKNTLYLQMNSLRAEDTATYYCARESIDYWGQGTLVTVSS	8.66
CD16-VH-RM75 (antibody) EVQLVESGGGLVQPGGSLRLSCAASGFTFSNYGMSWVRQAPGKGLEWIGSIYYSGDTNYNPSLKSLVTISRDNSKNTLYLQMNSLRAEDTATYYCARESIDYWGQGTLVTVSS	8.52
CD16-VH-RM80 (antibody) EVQLVESGGGLVQPGGSLRLSCAASGFTFSNYGMSWVRQAPGKGLEWIGSIYYDGSTNYNPSLKSLVTISRDNSKNTLYLQMNSLRAEDTATYYCARESIDYWGQGTLVTVSS	8.52
CD16-VH-RM81 (antibody) EVQLVESGGGLVQPGGSLRLSCAASGFTFSNYGMSWVRQAPGKGLEWIGSIYYTGSTNYNPSLKSLVTISRDNSKNTLYLQMNSLRAEDTATYYCARESIDYWGQGTLVTVSS	8.90
BM156-01 (antibody) EVQLVESGGGLVQPGGSLRLSCAASGFTFSNYGMSWVRQAPGKGLEWIGSIYYSGSTNYNPSLKSLVTISRDNSKNTLYLQMNSLRAEDTATYYCARESIDYWGQGTLVTVSS	8.12
CD16-VH-RM72 (antibody) EVQLVESGGGLVQPGGSLRLSCAASGFTFSNYGMSWVRQAPGKGLEWIGSIYYSGQTNYNPSLKSLVTISRDNSKNTLYLQMNSLRAEDTATYYCARESIDYWGQGTLVTVSS	8.72
CD16-VH-RM73 (antibody) EVQLVESGGGLVQPGGSLRLSCAASGFTFSNYGMSWVRQAPGKGLEWIGSIYYSGTTNYNPSLKSLVTISRDNSKNTLYLQMNSLRAEDTATYYCARESIDYWGQGTLVTVSS	8.48
